Assay: Half life in rat
Format: ADME, organism-based
Conditions: in vivo
Outcome Measure: half-life

Ask: Name the recorded half-life for `Cc1cc(CCC(=O)O)ccc1-c1ncc(-c2ccc(OC(C)C)c(C#N)c2)s1` .
Result: < 1 h

----------
Species: Homo sapiens
Experiment: Selectivity for S1P1 receptor over S1P5 receptor
Outcome Measure: Selectivity ratio

Please review the entries below; each comes with its answer.
[
  {
    "Molecule": "CC(=O)Oc1ccc(-c2nnc(-c3ccc(CCC(=O)O)cc3C)s2)cc1C#N",
    "Selectivity ratio": 110
  },
  {
    "Molecule": "CCCOc1ccc(-c2nnc(-c3ccc(CCC(=O)O)cc3C)s2)cc1C#N",
    "Selectivity ratio": 110
  },
  {
    "Molecule": "Cc1cc(CCC(=O)O)ccc1-c1nnc(-c2ccc(OCC(F)F)c(C#N)c2)s1",
    "Selectivity ratio": 230
  },
  {
    "Molecule": "Cc1cc(CCC(=O)O)ccc1-c1nnc(-c2ccc(OC(C(F)(F)F)C(F)(F)F)c(C#N)c2)s1",
    "Selectivity ratio": 2
  }
]

a. Cc1cc(CCC(=O)O)ccc1-c1nnc(-c2ccc(CC(C)C)c(C#N)c2)s1
b. Cc1cc(CCC(=O)O)ccc1-c1nnc(-c2ccc(OC3CCC3)c(C#N)c2)s1
c. Cc1cc(CCC(=O)O)ccc1-c1nnc(-c2ccc(-c3cccs3)c(C#N)c2)s1
d. CCOc1ccc(-c2nnc(-c3ccc(CCC(=O)O)cc3C)s2)cc1C#N
e. Cc1cc(CCC(=O)O)ccc1-c1nnc(-c2ccc(F)c(C#N)c2)s1
Ask: Task field, ranking: reported Selectivity ratio, descending order. List each label, following the requested order.
Result: d, a, b, c, e
(d: 480, a: 320, b: 170, c: 110, e: 18)

1. CCC(C)Oc1ccc(-c2nnc(-c3ccc(CCC(=O)O)cc3C)s2)cc1C#N (stereo unspecified)
2. Cc1cc(CCC(=O)O)ccc1-c1nnc(-c2ccc(OC(C)C)c(C#N)c2)s1
3. Cc1cc(CCC(=O)O)ccc1-c1nnc(-c2ccc(OCC(F)(F)F)c(C#N)c2)s1
4. Cc1cc(CCC(=O)O)ccc1-c1nnc(-c2ccc(OCC(=O)O)c(C#N)c2)s1
Ask: Order field: Selectivity ratio | Direction: descending (largest first) Return value: ordered labels per request.
Result: 3, 2, 1, 4
(3: 400, 2: 210, 1: 120, 4: 28)

I. Cc1cc(CCC(=O)O)ccc1-c1nnc(-c2ccc(OCC3CC3)c(C#N)c2)s1
II. Cc1cc(CCC(=O)O)ccc1-c1nnc(-c2ccc(OC(CF)CF)c(C#N)c2)s1
Ask: Among I and II , whose measured Selectivity ratio is the smaller figure? When you have decided, please share the label of that item.
Result: I
